- System: Plasmodium berghei
- assay: Screen against P. berghei liver stage (PbLuc), transformed with Luciferase, at 2uM
- Assay type: functional, HepG2
- protocol.conditions: tested at 2 uM
Out of some 68,000 compounds screened, about 2,700 (4%) showed an effect of 50% or more. Many of the other results were omitted from the sample, so strong results are more common in it than they were.
Could you label it y if measured INHIBITION is 20% or higher, and n otherwise?

Answer whether INHIBITION of CC(C)S(=O)(=O)NCC(Cc1cccc(F)c1)N1CCNC1=O (stereo unspecified) is greater than or equal to 20%.
y

Would you kindly repeat that for CCS(=O)(=O)NCC(Cc1cccc(F)c1)N1CCNC1=O (stereo unspecified) ?
n

Would you kindly repeat that for CS(=O)(=O)NCC(Cc1cccc(F)c1)N1CCNC1=O (stereo unspecified) ?
y

Would you kindly repeat that for CN1CCc2ccc(NCc3cscn3)cc2C1=O ?
y

Would you kindly repeat that for CCOCC(O)CN1CCN(C(=O)c2ccccc2F)CC1 (stereo unspecified) ?
y

Would you kindly repeat that for NC(=O)CC1CCN(C(=O)c2cnc(-c3ccccc3F)s2)CC1 ?
y
